method: Acute lethal toxicity on day 7 was determined
Type: organism-based
settings: mouse, in vivo

smiles-data | qualifier-symbol | LD50 at 7 day (mg/kg)
Cc1cc(=O)oc2c1c(C)nn2C | > | 1500
Cc1cc(=O)oc2nn(C)c(C)c12 | = | 250

---

Recorded ED50 for the following compounds
Organism: Mus musculus
method: Compound was tested for […] activity by phenylquinone writhing method in mice.
Type: functional
property: ED50 (mg/kg)

compound | property | unit-descriptor | qualifier-symbol | measurement
Cc1cccc(Nc2ccccc2C(=O)O)c1C [MEFENAMIC ACID] | ED50 | mg/kg | = | 45.9
Cc1c(N(C)C)c(=O)n(-c2ccccc2)n1C [AMINOPYRINE] | ED50 | mg/kg | = | 19.2
CC(C)Cc1ccc(C(C)C(=O)O)cc1 (configuration not stated) [IBUPROFEN] | ED50 | mg/kg | = | 50
CCn1nc(C)c2c(C)cc(=O)oc21 | ED50 | mg/kg | = | 24.9
CCOC(=O)Cc1nnc2oc(O)cc(C)c1-2 | ED50 | mg/kg | > | 100
Cc1cc(=O)oc2c1c(C)nn2C(C)C | ED50 | mg/kg | > | 100
Cc1cc(=O)oc2nn(C(C)C)c(C)c12 | ED50 | mg/kg | = | 35.3

Attribution: ChEMBL document CHEMBL1122640
